Biological target: T1, DegS P161A/H198P (E. coli, UniProt P0AEE3 27-355, P161A | H198P)
T1 sequence (looked up): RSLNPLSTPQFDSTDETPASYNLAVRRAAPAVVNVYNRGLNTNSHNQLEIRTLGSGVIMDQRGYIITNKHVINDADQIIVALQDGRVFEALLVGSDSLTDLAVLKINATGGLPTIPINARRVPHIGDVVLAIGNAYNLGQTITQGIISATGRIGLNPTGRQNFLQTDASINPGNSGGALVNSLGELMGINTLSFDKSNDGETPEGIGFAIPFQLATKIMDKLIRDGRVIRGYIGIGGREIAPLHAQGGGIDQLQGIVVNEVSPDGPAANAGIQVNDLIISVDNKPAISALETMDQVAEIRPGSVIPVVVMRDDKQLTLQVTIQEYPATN
Experiment: fluorescence polarisation
Where no end group is shown, it is not given here. fluorescein = fluorescein, a fluorescent label on the peptide N-terminus
Parameter: pKd
Numbers only, as −log10 of the molar value.

stdin: May I ask what pKd has been recorded for fluorescein-DNRDGNVYYF [fluorescent OMP peptide fluorescein-DNRDGNVYYF] ?
stdout: 5.60
